For each record, write down the corresponding MIC.
Test system: Kleb. pneumoniae EK-6
Assay text: Anti-bacterial activity (MIC), agar dilution
Format: cell-based
Experimental conditions: Klebsiella pneumoniae, EK6, 18 h, Kleb. pneumoniae EK-6; agar dilution, about 10^6 CFU/ml, 18 hours, 37° C.; read-out: MIC

Example entries and their recorded answers appear below.
>  <Compound>
NC(=O)C[N+]1(C/C=C/C2=C(C(=O)[O-])N3C(=O)[C@@H](NC(=O)/C(=N\OCF)c4nsc(N)n4)[C@H]3SC2)CCCC1

>  <MIC>
≤ 0.025 µg/mL

$$$$
>  <Compound>
CC(C)(O/N=C(\C(=O)N[C@@H]1C(=O)N2C(C(=O)[O-])=C(C[n+]3ccccc3)CS[C@H]12)c1csc(N)n1)C(=O)O [CAZ, Cefatazidime, reference compound]

>  <MIC>
0.1 µg/mL

$$$$
>  <Compound>
C[C@@H](O)[C@@H](C(N)=O)[N+](C)(C)C/C=C/C1=C(C(=O)[O-])N2C(=O)[C@@H](NC(=O)/C(=N\OCC#N)c3nsc(N)n3)[C@H]2SC1

>  <MIC>
0.1 µg/mL

$$$$
>  <Compound>
CNC(=O)CC[N+](C)(C)C/C=C/C1=C(C(=O)[O-])N2C(=O)[C@@H](NC(=O)/C(=N\OCF)c3nsc(N)n3)[C@H]2SC1

>  <MIC>
≤ 0.025 µg/mL

$$$$
>  <Compound>
Nc1nc(/C(=N/OCF)C(=O)N[C@@H]2C(=O)N3C(C(=O)[O-])=C(/C=C/C[N+]4(CC(O)CO)CCOCC4)CS[C@H]23)ns1 (stereo partly drawn)

>  <MIC>
0.05 µg/mL

$$$$
>  <Compound>
Nc1ccc[n+](C/C=C/C2=C(C(=O)[O-])N3C(=O)[C@@H](NC(=O)/C(=N\OCF)c4nsc(N)n4)[C@H]3SC2)c1

>  <MIC>
≤ 0.025 µg/mL

$$$$
>  <Compound>
Nc1nc(/C(=N/OCF)C(=O)N[C@@H]2C(=O)N3C(C(=O)[O-])=C(/C=C/C[n+]4ccc(C(=O)N(CCO)CCO)cc4)CS[C@H]23)ns1

>  <MIC>
≤ 0.025 µg/mL

$$$$
>  <Compound>
Nc1nc(/C(=N/OCF)C(=O)N[C@@H]2C(=O)N3C(C(=O)[O-])=C(/C=C/C[N+]4(CCO)CCOCC4)CS[C@H]23)ns1

>  <MIC>
≤ 0.025 µg/mL

$$$$

Go through the list and state MIC for each entry.
1. C[N+](C)(C/C=C/C1=C(C(=O)[O-])N2C(=O)[C@@H](NC(=O)/C(=N\OCF)c3nsc(N)n3)[C@H]2SC1)C(CO)(CO)CO
2. CN1CCC[N+]1(C)C/C=C/C1=C(C(=O)[O-])N2C(=O)[C@@H](NC(=O)/C(=N\OCF)c3nsc(N)n3)[C@H]2SC1 (single isomer, unassigned)
3. C[N+]1(CC=CC2=C(C(=O)[O-])N3C(=O)C(NC(=O)C(=NOCF)c4nsc(N)n4)C3SC2)CC(O)CC1CO (stereo not drawn)
4. C[N+](C)(C/C=C/C1=C(C(=O)[O-])N2C(=O)[C@@H](NC(=O)/C(=N\OCF)c3nsc(N)n3)[C@H]2SC1)Cc1ccn[nH]1
5. CC[N+](CC)(C/C=C/C1=C(C(=O)[O-])N2C(=O)[C@@H](NC(=O)/C(=N\OCF)c3nsc(N)n3)[C@H]2SC1)CC(N)=O

Outgoing:
["≤ 0.025 µg/mL", "≤ 0.025 µg/mL", "≤ 0.025 µg/mL", "≤ 0.025 µg/mL", "≤ 0.025 µg/mL"]

Go through the list and state MIC for each entry.
1. Nc1nc(/C(=N/OCF)C(=O)N[C@@H]2C(=O)N3C(C(=O)[O-])=C(/C=C/C[n+]4ccc(C(=O)NCCO)cc4)CS[C@H]23)ns1
2. C[N+]1(C/C=C/C2=C(C(=O)[O-])N3C(=O)[C@@H](NC(=O)/C(=N\OCF)c4nsc(N)n4)[C@H]3SC2)CCNCC1
3. Nc1nc(/C(=N/OCF)C(=O)N[C@@H]2C(=O)N3C(C(=O)[O-])=C(/C=C/C[N+]4(CCO)CCC[C@@H]4CO)CS[C@H]23)ns1 (stereo partly drawn)
4. NC(=O)C[N+]1(C/C=C/C2=C(C(=O)[O-])N3C(=O)[C@@H](NC(=O)/C(=N\OCF)c4nsc(N)n4)[C@H]3SC2)CCOCC1

Outgoing:
["≤ 0.025 µg/mL", "≤ 0.025 µg/mL", "≤ 0.025 µg/mL", "≤ 0.025 µg/mL"]

Taken from patent US4921850A.
